measurement_protocol: NIH-3T3 fibroblast cytotoxicity, dose response, cytotoxicity control, cell-based, fluorescence, Alamar Blue, secondary assay (AID 2327);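 note: NIH-3T3 mouse fibroblasts cultured with fluconazole at 8 µg/mL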
Type: functional
Activity calls are given as the source filed them.
Mark one answer only. Choices: active, inactive

Field: example entries. Status: answers known.
O=C(CSc1cccc[n+]1[O-])c1cc(Cl)ccc1Cl = active
Cn1c(/C=N/Nc2nc3ccccc3[nH]2)nc2ccccc21 = active

Query: Call for entry `C=CCc1cccc(/C=N/NC(=O)CNc2ccccc2OC)c1O` :
Response: inactive

Query: Call for entry `Nc1cc(N)nc(SCc2cccc(F)c2)n1` :
Response: inactive

====

target_or_system: UniProtKB P08684
Sequence (P08684 whole entry): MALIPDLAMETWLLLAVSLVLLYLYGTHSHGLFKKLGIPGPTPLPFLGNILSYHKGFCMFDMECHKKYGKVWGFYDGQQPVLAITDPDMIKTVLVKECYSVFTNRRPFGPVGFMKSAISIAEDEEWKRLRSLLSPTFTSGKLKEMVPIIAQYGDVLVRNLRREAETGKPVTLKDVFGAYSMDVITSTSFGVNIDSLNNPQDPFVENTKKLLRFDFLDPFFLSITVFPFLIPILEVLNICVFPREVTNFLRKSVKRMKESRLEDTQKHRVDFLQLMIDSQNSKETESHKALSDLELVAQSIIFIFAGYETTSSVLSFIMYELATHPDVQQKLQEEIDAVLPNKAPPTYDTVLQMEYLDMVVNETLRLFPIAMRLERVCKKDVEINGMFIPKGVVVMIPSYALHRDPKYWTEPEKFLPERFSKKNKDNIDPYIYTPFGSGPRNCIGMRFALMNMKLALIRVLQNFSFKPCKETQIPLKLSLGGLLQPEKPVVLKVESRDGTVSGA
assay_conditions: Potency
measurement_type: AC50

Use the examples below as a reference point.
CC1(C(=O)NCCN2CCOCC2)C=CCN1C(=O)c1ccccc1 (stereo not given) = 25.1 µM (inconclusive)
CC1CN2C(CCC(C)C2c2ccc(Br)cc2)C(=O)O1 (stereo not given) = 5.01 µM (inconclusive)
C=CCCCCCCCCCCC/C=C/C(O)COC(C)=O (stereo not given) [DEHYDROAVOCATIN-1-ACETATE] = 39.8 µM (inconclusive)

Query: Write down AC50 measured for item CCCCCCN(C(=O)CCCCCN1C(=O)NC(c2ccc(-c3ccccc3)cc2)C(C(=O)OCc2ccccc2)=C1C)C(C(=O)NCCCC)c1cccc(C(=O)OC)c1 (stereo not given)
Response: 2.51 µM (inconclusive)

Query: Write down AC50 measured for item `C[C@@H]1O[C@@H](O[C@@H]2[C@@H](O)[C@H](OCCc3ccc(O)c(O)c3)O[C@H](CO[C@@H]3O[C@H](CO)[C@@H](O)[C@H](O)[C@H]3O)[C@H]2OC(=O)/C=C/c2ccc(O)c(O)c2)[C@H](O)[C@H](O)[C@H]1O`
Response: 7.94 µM (inconclusive)

====

Test system: BJ
measurement_protocol: cells
Type: functional, cell-based
assay_conditions: Homo sapiens
Calls of active or inactive are those of the source.
measurement_type: EC50

Use the examples below as a reference point.
COc1ccccc1N1C(C)=CC(=Cc2sc3ccccc3[n+]2C)C=C1C = 2.54 µM (active)
CCOc1c(Br)cc(CNc2ccc3c(c2)OCCO3)cc1OC = 17.7 µM (active)
CCN1/C(=C/C=C/C=C/c2sc3ccccc3[n+]2CC)Sc2ccccc21 [DITHIAZANINE IODIDE] = 2.04 µM (inconclusive)
Oc1c(CN2CCN(c3ccccc3)CC2)cc(Br)c2cccnc12 = 12.7 µM (inconclusive)

Alright, here's another molecule for you.
Query: Write down EC50 measured for item CC1CCc2c(sc3nc(C(C)(C)C)nc(N4CCN(C(=O)CCl)CC4)c23)C1 (stereo not given)
Response: 5.41 µM (inconclusive)

====

Measured IC50, listed per entry.
target_or_system: Apoptotic protease-activating factor 1 (Homo sapiens)
Sequence (O14727 whole entry): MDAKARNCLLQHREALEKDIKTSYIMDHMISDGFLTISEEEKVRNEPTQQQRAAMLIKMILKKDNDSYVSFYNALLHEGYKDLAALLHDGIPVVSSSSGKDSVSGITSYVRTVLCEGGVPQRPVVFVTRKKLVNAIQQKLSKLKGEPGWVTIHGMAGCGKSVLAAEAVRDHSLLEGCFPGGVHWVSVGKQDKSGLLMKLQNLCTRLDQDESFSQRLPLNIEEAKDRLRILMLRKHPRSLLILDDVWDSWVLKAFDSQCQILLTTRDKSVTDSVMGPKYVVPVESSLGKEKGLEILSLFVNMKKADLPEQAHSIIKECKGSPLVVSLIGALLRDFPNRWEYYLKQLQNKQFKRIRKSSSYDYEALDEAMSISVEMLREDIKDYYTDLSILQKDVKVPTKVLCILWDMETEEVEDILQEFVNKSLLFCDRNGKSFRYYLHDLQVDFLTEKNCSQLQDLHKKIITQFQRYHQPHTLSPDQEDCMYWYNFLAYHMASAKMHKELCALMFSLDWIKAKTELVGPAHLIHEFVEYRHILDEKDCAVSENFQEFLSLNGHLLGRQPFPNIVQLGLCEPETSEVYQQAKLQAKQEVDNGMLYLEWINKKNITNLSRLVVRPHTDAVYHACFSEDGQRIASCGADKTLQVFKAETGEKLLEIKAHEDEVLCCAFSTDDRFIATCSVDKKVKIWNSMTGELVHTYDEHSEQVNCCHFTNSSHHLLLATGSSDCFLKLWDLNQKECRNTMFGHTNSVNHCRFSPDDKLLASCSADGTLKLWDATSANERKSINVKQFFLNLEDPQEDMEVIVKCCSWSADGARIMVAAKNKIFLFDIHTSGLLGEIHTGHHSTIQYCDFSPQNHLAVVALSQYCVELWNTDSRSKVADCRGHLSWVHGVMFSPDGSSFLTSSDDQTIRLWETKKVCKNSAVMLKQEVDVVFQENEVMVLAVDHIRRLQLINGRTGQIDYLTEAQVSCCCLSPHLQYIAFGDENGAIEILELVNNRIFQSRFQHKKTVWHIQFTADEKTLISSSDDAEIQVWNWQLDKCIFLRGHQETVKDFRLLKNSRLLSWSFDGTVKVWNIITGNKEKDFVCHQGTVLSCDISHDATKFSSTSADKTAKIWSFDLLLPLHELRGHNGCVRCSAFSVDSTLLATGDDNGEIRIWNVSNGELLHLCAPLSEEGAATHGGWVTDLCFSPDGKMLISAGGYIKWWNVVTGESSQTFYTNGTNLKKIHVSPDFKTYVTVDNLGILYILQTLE
Type: functional
Active and inactive are the calls of the source.

N#Cc1c(NC(=O)c2ccc(Br)o2)n(-c2ccccc2)c2nc3ccccc3nc12 = 7.22 µM (active)

Query: Write down IC50 measured for item `CCCCCCCCCCOC(=O)Cn1c(COc2ccccc2)[n+](C)c2ccccc21`
Response: 12.6 µM (active)

Query: Write down IC50 measured for item `CCOC(=O)c1c(-c2ccc(-c3ccccc3)cc2)csc1NC(=O)CNCCN(C)C`
Response: 32.5 µM (active)

Query: Write down IC50 measured for item `Oc1cc(NCCc2cccnc2)cc2cccnc12`
Response: 18.4 µM (active)

Query: Write down IC50 measured for item CC1CCN(S(=O)(=O)c2ccc3c4c2CC(=O)N4CC(C)S3)CC1 (configuration not stated)
Response: 3.64 µM (active)

Query: Write down IC50 measured for item `CCCCCn1c(NC(=O)c2ccco2)c(C(=O)OCC)c2nc3ccccc3nc21`
Response: 20.3 µM (active)

Query: Write down IC50 measured for item `CC(C)[n+]1ccn(C2=C([N-]S(=O)(=O)c3ccccc3)C(=O)c3ccccc3C2=O)c1`
Response: 7.16 µM (active)
